# test_name: Solubility of compound in water
# Assay type: physicochemical
# experimental_setup: buffer
readout: solubility

As a guide, the following entries are already answered.
# structure_notation, solubility
measured = [
    ("CCc1nc(NC(C)=O)[nH]c1-c1cn(S(=O)(=O)c2ccccc2)c2ccccc12", "Insoluble"),
    ("COc1ccc2c(c1)c(-c1[nH]c(NCCc3ccccc3)nc1C)cn2S(=O)(=O)c1ccccc1", "Insoluble"),
    ("COc1ccc2c(c1)c(-c1cnc(NC(C)=O)[nH]1)cn2S(=O)(=O)c1cccc(F)c1", "Insoluble"),
    ("CCc1nc(N)[nH]c1-c1cn(S(=O)(=O)c2ccccc2)c2ccccc12.Cl", "Soluble"),
    ("CCC(=O)Nc1nc(C)c(-c2cn(S(=O)(=O)c3ccccc3)c3ccc(OC)cc23)[nH]1", "Insoluble"),
    ("COc1ccc2c(c1)c(-c1c(C)nc(N)n1CC(F)F)cn2S(=O)(=O)c1ccccc1", "Insoluble"),
]

Fill blank: measured solubility of the compound "COc1ccc2c(c1)c(-c1nc(N)sc1C)cn2S(=O)(=O)c1cccc2ccccc12" is ____.
Insoluble

---

I'd appreciate it if you could supply solubility values for the items below.
# test_name: Solubility of compound in water
# Format: physicochemical
# experimental_setup: water; read-out: solubility

Need solubility, item "CC(=O)Nc1nc(C)c(-c2cn(S(=O)(=O)c3ccccc3)c3ccccc23)[nH]1.Cl"
100 to 10000 µg/mL

Moving on to "Cc1nc(N)[nH]c1-c1cn(S(=O)(=O)c2cccc3ccccc23)c2ccccc12.Cl"
1000 to 10000 µg/mL

How about "COc1ccc2c(c1)c(-c1[nH]c(NCC(F)F)nc1C)cn2S(=O)(=O)c1ccccc1" ?
1000 to 10000 µg/mL

---

# test_name: in vitro
# experimental_setup: rat, microsomes
readout: log10(half-life) (log10 of the value in min)
All values: base-10 log of half-life in min.

Would you kindly share the measured log10(half-life) for "O=S(=O)(c1ccccc1)n1cc(-c2c[n+]3cccnc3[nH]2)c2ccccc21.[Br-]" ?
0.78

What do we get for COc1cc2c(cc1OC)C(=O)C(CC1CCN(Cc3ccccc3)CC1)C2 (stereo unspecified) [DONEPEZIL] ?
1.90

Next: "CC(=O)Nc1nc(C)c(-c2cn(S(=O)(=O)c3ccccc3)c3ccccc23)[nH]1"
2.28

Same question for "CCC(=O)Nc1nc(C)c(-c2cn(S(=O)(=O)c3ccccc3)c3ccc(OC)cc23)[nH]1" please.
1.91

And the next one, "Cc1nc(N)[nH]c1-c1ccc2ccn(S(=O)(=O)c3ccccc3)c2c1.Cl" ?
1.11

// next record "Cc1nc(N)[nH]c1-c1cn(S(=O)(=O)c2cccc3ccccc23)c2ccccc12.Cl"
1.36

---

# test_target: D(2) dopamine receptor (Homo sapiens, UniProt P14416)
# Sequence (P14416 whole entry): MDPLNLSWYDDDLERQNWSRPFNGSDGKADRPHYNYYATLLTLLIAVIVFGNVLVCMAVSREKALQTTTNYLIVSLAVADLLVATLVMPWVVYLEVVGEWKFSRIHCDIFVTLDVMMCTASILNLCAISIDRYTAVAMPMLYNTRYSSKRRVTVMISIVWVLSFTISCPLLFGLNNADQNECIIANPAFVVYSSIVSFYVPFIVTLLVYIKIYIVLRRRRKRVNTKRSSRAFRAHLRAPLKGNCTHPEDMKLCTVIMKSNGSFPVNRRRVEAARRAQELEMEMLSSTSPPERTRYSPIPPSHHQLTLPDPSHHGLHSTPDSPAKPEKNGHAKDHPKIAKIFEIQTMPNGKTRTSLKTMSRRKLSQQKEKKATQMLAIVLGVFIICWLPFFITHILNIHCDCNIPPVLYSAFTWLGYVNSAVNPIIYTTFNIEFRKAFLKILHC
# test_name: Displacement of [3H]-methylspiperone from human D2 long receptor expressed in HEK293 cells measured after 1 hr by liquid scintillation counter method
Please go through the items and note down their Ki.
Number only, in nM; omit the unit.

Record "Cc1nc(N)[nH]c1-c1ccc2ccn(S(=O)(=O)c3ccccc3)c2c1.Cl" : what is its Ki with D(2) dopamine receptor (Homo sapiens, UniProt P14416)?
708

Try this molecule next: "Cc1nc(N)[nH]c1-c1cn(S(=O)(=O)c2cccc3ccccc23)c2ccccc12.Cl"
1170

Entry to check: "COc1ccc2c(c1)c(-c1[nH]c(NCC(F)F)nc1C)cn2S(=O)(=O)c1ccccc1"
3980

---

# test_name: in vitro
# experimental_setup: rat, liver microsomes
readout: microsomal CLint (µL/min/mg)
The response must be a number in µL/min/mg with no trailing unit.

Field request: microsomal CLint | item: "COc1ccc2c(c1)c(-c1[nH]c(NCC(F)F)nc1C)cn2S(=O)(=O)c1ccccc1"
39

Now this one: O=S(=O)(c1ccccc1)c1cnc2c(N3CCNCC3)cccc2c1 [INTEPIRDINE]
6.6

---

I'd appreciate it if you could supply inhibition values for the items below.
# test_target: Histamine H1 receptor (Homo sapiens) (UniProt P35367)
# Sequence (P35367 whole entry): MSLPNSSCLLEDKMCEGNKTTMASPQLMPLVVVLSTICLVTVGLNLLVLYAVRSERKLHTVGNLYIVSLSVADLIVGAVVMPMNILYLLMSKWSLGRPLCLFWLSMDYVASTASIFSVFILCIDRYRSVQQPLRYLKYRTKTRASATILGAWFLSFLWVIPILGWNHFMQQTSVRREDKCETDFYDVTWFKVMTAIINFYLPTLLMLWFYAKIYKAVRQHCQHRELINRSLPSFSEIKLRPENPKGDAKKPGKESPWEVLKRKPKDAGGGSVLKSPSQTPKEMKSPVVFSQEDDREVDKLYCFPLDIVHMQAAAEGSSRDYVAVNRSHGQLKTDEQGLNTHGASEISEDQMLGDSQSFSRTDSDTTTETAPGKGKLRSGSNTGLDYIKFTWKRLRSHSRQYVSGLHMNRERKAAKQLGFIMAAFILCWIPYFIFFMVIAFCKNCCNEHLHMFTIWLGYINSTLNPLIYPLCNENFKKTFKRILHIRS
# test_name: Displacement of [3H] pyrilamine from human recombinant H1 histamine receptor at 10^-6 M measured after 60 mins by scintillation counting method relative to control
Express it in %; write the number only.

Tell me the measured inhibition of "COc1ccc2c(c1)c(-c1[nH]c(NCC(F)F)nc1C)cn2S(=O)(=O)c1ccccc1" , please.
1

Now give it for "CC(=O)Nc1nc(C)c(-c2cn(S(=O)(=O)c3ccccc3)c3ccccc23)[nH]1" too.
-5.9

Same for "Cc1nc(N)[nH]c1-c1cn(S(=O)(=O)c2cccc3ccccc23)c2ccccc12.Cl"
70.1

For "CC(=O)Nc1nc(C)c(-c2ccc3ccn(S(=O)(=O)c4ccccc4)c3c2)[nH]1" then?
-1.9

---

# test_target: D(2) dopamine receptor (Homo sapiens)
# test_name: Displacement of [3H]-methylspiperone from human D2 long receptor expressed in HEK293 cells measured after 1 hr by liquid scintillation counter method
readout: Ki (µM)
Numeric answer only, unit µM assumed.

// returns reported Ki for input "COc1ccc2c(c1)c(-c1c(C)nc(N)n1CC(F)F)cn2S(=O)(=O)c1ccccc1"
3.8

Please answer likewise for "COc1ccc2c(c1)c(-c1[nH]c(NCCc3ccccc3)nc1C)cn2S(=O)(=O)c1ccccc1"
2.14

---

# test_name: Solubility of compound in water
# Format: physicochemical
# experimental_setup: buffer
readout: solubility

Some solved entries appear below for comparison.
# structure_notation, solubility
rows = [
    ("CCC(=O)Nc1nc(C)c(-c2cn(S(=O)(=O)c3ccc4ccccc4c3)c3ccc(OC)cc23)[nH]1", "Insoluble"),
    ("COc1ccc2c(c1)c(-c1[nH]c(N)nc1C)cn2S(=O)(=O)c1ccccc1.Cl", "Soluble"),
    ("CCC(=O)Nc1nc(C)c(-c2cn(S(=O)(=O)c3cccc(F)c3)c3ccc(OC)cc23)[nH]1", "Insoluble"),
    ("Cl.Nc1ncc(-c2cn(S(=O)(=O)c3ccccc3)c3ccccc23)[nH]1", "Soluble"),
]

Now for a further compound.
What value of solubility has been reported for the following compound? "CC(=O)Nc1nc(C)c(-c2cn(S(=O)(=O)c3cccc4ccccc34)c3ccccc23)[nH]1"
Insoluble

---

# test_target: 5-hydroxytryptamine receptor 2C (Homo sapiens)
# Sequence (whole entry): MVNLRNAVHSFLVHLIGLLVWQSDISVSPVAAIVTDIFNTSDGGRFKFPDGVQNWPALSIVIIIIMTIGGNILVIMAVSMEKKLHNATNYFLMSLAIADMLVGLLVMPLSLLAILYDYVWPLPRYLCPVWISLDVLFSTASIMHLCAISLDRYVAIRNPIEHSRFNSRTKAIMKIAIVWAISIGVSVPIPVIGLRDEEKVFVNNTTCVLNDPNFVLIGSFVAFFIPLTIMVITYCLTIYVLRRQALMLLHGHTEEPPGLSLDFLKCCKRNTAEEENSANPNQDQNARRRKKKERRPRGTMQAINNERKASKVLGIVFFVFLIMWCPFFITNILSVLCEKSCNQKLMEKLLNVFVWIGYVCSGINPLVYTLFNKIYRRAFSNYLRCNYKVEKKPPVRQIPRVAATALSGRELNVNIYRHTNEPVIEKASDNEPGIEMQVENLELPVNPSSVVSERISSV
# test_name: Displacement of [3H]mesulergine from human recombinant 5HT2C serotonin receptor at 10^-6M incubated for 120 mins by scintillation counter method relative to control
The label depends only on inhibition: True if it is at least 70%, False if it is smaller.

# check: inhibition of "COc1ccc2c(c1)c(-c1[nH]c(NCC(F)F)nc1C)cn2S(=O)(=O)c1ccccc1" is greater than or equal to 70%
False

Similarly, "CC(=O)Nc1nc(C)c(-c2cn(S(=O)(=O)c3ccccc3)c3ccccc23)[nH]1" ?
False

Further, for "Cc1nc(N)[nH]c1-c1cn(S(=O)(=O)c2cccc3ccccc23)c2ccccc12.Cl" ?
False

Repeat for the following compound: "COc1ccc2c(c1)c(-c1cnc(N)[nH]1)cn2S(=O)(=O)c1ccccc1"
True

---

# test_name: Solubility of compound in water
# Assay type: physicochemical
# experimental_setup: buffer
readout: solubility

# structure_notation, solubility
measured = [
    ("COc1ccc2c(c1)c(-c1[nH]c(NC(C)=O)nc1C)cn2S(=O)(=O)c1cccc(F)c1", "Insoluble"),
    ("CC(=O)Nc1nc(C)c(-c2c(C)n(S(=O)(=O)c3ccccc3)c3ccccc23)[nH]1", "Insoluble"),
    ("CCC(=O)Nc1nc(C)c(-c2cn(S(=O)(=O)c3cccc4ccccc34)c3ccccc23)[nH]1", "Insoluble"),
    ("CC(=O)N1CCCn2c1nc(C)c2-c1cn(S(=O)(=O)c2ccccc2)c2ccccc12", "Insoluble"),
    ("COc1ccc2c(c1)c(-c1[nH]c(N)nc1C)cn2S(=O)(=O)c1cccc(F)c1.Cl", "Soluble"),
]

Could you tell me which solubility is on file for "CCC(=O)Nc1nc(C)c(-c2ccc3ccn(S(=O)(=O)c4ccccc4)c3c2)[nH]1" ?
Insoluble

# iterate: "CCC(=O)Nc1nc(CC)c(-c2cn(S(=O)(=O)c3ccccc3)c3ccc(OC)cc23)[nH]1"
Insoluble

Next entry: "Cc1sc(N)nc1-c1cn(S(=O)(=O)c2cccc3ccccc23)c2ccccc12"
Insoluble

Repeat for the following molecule: "Cl.Nc1ncc(-c2cccc3c2ccn3S(=O)(=O)c2ccccc2)[nH]1"
Soluble
